# System: HCC 2998
# experimental details: NCI tumour cell line growth inhibition, 48 h
The source made the active and inactive calls. Cut-off read from the data, not from the text of the source: active = GI50 up to about 1.1 µM and inactive = higher.
Labels: active, inactive

> print(dat)
                                    compound  target.system  answer.label
 1  Cc1ccc([S+]([O-])C(C)C(Cl)c2ccccc2)cc1 (stereo unspecified)       HCC 2998      inactive
 2  Cn1ccnc1Cn1cc(-c2cccc(-c3cn[nH]c3)c2)cn1       HCC 2998      inactive
 3    O=c1[nH]c2ccc(C(F)(F)F)cc2nc1Cc1ccccc1       HCC 2998      inactive
 4  COC(=O)/N=[N+](\[O-])C(c1ccc(OC)cc1)C1CCCCC1 (stereo unspecified)       HCC 2998      inactive
 5   S=C(N/N=C/c1ccco1)NC12CC3CC(CC(C3)C1)C2       HCC 2998      inactive
 6                CNC(=S)Nc1sc2c(c1C#N)CCCC2       HCC 2998      inactive
 7  CC(=O)C(C(C)=O)[C@@H]1OC(C)(C)O[C@@H]1[C@H]1COC(C)(C)O1       HCC 2998      inactive
 8          O=c1cccccc1NCCCCCCCCNc1cccccc1=O       HCC 2998      inactive
 9  Cc1cc2c(cc1C)[n+]([O-])c(C#N)c(Cl)[n+]2[O-]       HCC 2998      inactive
10  COc1cc2c(cc1O)CN1CCC23C=C[C@@H](O)CC13 (stereo partly specified)       HCC 2998      inactive
11  COc1cc(C2c3cc4c(cc3OC3(OC)COC(=O)C23)OCO4)cc(OC)c1OC(C)=O (stereo unspecified)       HCC 2998      inactive
12  O=C1C(c2c(O)[nH]c3ccc(Br)cc23)=Nc2ccc(Br)cc21       HCC 2998      inactive
13                 Brc1ccc(CCNCCN2CCCCC2)cc1       HCC 2998      inactive
14  C=C(C(=O)OC)[C@H]1CC/C(C)=C/CC/C(C)=C/CC[C@@]2(C)O[C@@H]2C1       HCC 2998      inactive
15  COC(=O)C1C=CCON2CCc3c(n(C)c4ccccc34)C12 (stereo unspecified)       HCC 2998      inactive
16  CC1=C2C(=CC(C)(C)[C@@H]2O)C(=O)[C@](C)(O)C12CC2       HCC 2998        active
17  COc1cc([C@H]2c3cc4c(cc3[C@H](NCc3ccc([N+](=O)[O-])cc3)C3COC(=O)[C@H]32)OCO4)cc(OC)c1O (stereo partly specified)       HCC 2998      inactive
18  N=S(=O)(c1ccccc1)c1ccccc1[N+](=O)[O-] (stereo unspecified)       HCC 2998      inactive
19             C=CC[C@@]12CCC(=O)C=C1CCCC2=O       HCC 2998      inactive
20   O=c1cc(/N=N\c2ccc(Cl)cc2)[nH]c(=O)[nH]1       HCC 2998      inactive
21  Clc1ccc(-c2ccc(-c3nnc(COc4ccc(OCc5nnc(-c6ccc(-c7ccc(Cl)cc7Cl)o6)o5)c(Cl)c4)o3)o2)c(Cl)c1       HCC 2998      inactive
